Numbers sourced from patent US20210221808A1.

- measured.target: indoleamine 2,3-dioxygenase (IDO) activity in Hela cells (Homo sapiens, UniProt P14902)
- Construct: a certain concentration of IFN-γ can induce Hela cells to express IDO
- Sequence (P14902 whole entry): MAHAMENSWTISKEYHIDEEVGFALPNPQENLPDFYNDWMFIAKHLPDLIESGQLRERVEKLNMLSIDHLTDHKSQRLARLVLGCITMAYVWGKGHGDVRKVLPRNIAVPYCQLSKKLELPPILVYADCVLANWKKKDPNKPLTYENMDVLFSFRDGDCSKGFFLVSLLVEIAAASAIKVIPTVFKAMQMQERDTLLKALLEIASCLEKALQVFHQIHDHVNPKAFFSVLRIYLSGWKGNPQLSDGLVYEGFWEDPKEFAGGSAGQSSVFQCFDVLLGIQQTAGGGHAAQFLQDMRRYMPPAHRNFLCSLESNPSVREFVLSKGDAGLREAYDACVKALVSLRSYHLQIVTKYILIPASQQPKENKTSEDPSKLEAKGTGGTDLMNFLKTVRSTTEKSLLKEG
- experimental.details: IDO Intracellular Activity Inhibition Test (Ehrlich method, IFN-γ induced Hela cells)
- conditions: IDO activity in Hela cells induced by IFN-γ, 24 hours incubation, OD490
endpoint.label: IC50

Past entries and their recorded results:
>  <molecule>
C[C@H]([C@H]1CC[C@@H](c2ccnc3ccc(F)cc32)CC1)n1[nH]c2ccc(Br)cc2c1=O

>  <IC50>
< 50 nM

$$$$
>  <molecule>
C[C@H]([C@H]1CC[C@@H](c2ccnc3ccc(F)cc32)CC1)n1[nH]c2cc(Cl)cnc2c1=O

>  <IC50>
< 50 nM

$$$$

[in] Please look up its IC50: CC([C@H]1CC[C@H](c2ccnc3ccc(F)cc32)CC1)n1[nH]c2cc(Cl)ccc2c1=O (some centres unmarked)
[out] 50 to 200 nM

[in] Sample `C[C@H]([C@H]1CC[C@@H](c2ccnc3ccc(F)cc32)CC1)n1[nH]c2ncc(Cl)cc2c1=O` — what was its IC50?
[out] < 50 nM

[in] What does the record list as IC50 for `C[C@H]([C@H]1CC[C@@H](c2ccnc3ccc(F)cc32)CC1)n1[nH]c2ccc(Cl)cc2c1=O` ?
[out] < 50 nM

[in] Param item = CC([C@H]1CC[C@@H](c2ccnc3ccc(F)cc32)CC1)n1[nH]c2cc(Cl)ccc2c1=O (some centres unmarked) ; retrieve measured IC50.
[out] < 50 nM

[in] Consider the molecule `C[C@H]([C@H]1CC[C@@H](c2ccnc3ccc(F)cc32)CC1)n1[nH]c2cc(Cl)ccc2c1=O` and give its measured IC50.
[out] < 50 nM

[in] Which IC50 is reported for this molecule? `O=c1c2ccc(Cl)cc2[nH]n1C[C@H]1CC[C@H](c2ccnc3ccc(F)cc32)CC1`
[out] 50 to 200 nM

[in] // IC50 lookup, key: `C[C@H]([C@H]1CC[C@@H](c2ccnc3ccc(F)cc32)CC1)n1[nH]c2cc(Cl)c(Cl)cc2c1=O`
[out] < 50 nM

[in] # input molecule: `Cc1cc([C@H]2CC[C@@H]([C@@H](C)n3[nH]c4cc(Cl)ccc4c3=O)CC2)ccn1` ; wanted: its IC50
[out] < 50 nM

[in] Entry under review: `O=c1c2ccc(Cl)cc2[nH]n1C[C@H]1CC[C@@H](c2ccnc3ccc(F)cc32)CC1` . Reported IC50?
[out] < 50 nM
